Reported weed control effect, Setaria viridis (level) is given for each of the following molecules.
System: Monocotyledonous and dicotyledonous weed
protocol-notes: Post-emergence test experiment, weed control effect (Table 2)
Type: in vivo
Parameters: key: Level 10: completely dead; Level 9: above 90% growth inhibition rate; Level 8: above 80% growth inhibition rate; Level 7: above 70% growth inhibition rate; Level 6: above 60% growth inhibition rate; Level 5: above 50% growth inhibition rate; Level 4: above 30% growth inhibition rate; Level 3: above 20% growth inhibition rate; Level 2: above 10% growth inhibition rate; Level 1: above 1-10% growth inhibition rate; Level 0: no effect
condition-notes: 30 g/ha, 3 weeks after spraying, greenhouse
measure-name: weed control effect, Setaria viridis (level)

>  <item-smiles>
C#CCOCc1c(S(C)(=O)=O)ccc(C(=O)c2cnn(C(C)C)c2OC(=O)c2cn(C)nc2C)c1Cl

>  <test-result>
10

$$$$
>  <item-smiles>
CCOc1c(C(=O)Oc2c(C(=O)c3ccc(S(C)(=O)=O)c(COCC(F)(F)F)c3Cl)cnn2C)cnn1C

>  <test-result>
10

$$$$

* * *

Catalogue of weed control effect, Setaria viridis (level) readings, one per entry.
System: Monocotyledonous and dicotyledonous weed
protocol-notes: Post-emergence test experiment, weed control effect (Table 2)
Type: in vivo
Parameters: key: Level 10: completely dead; Level 9: above 90% growth inhibition rate; Level 8: above 80% growth inhibition rate; Level 7: above 70% growth inhibition rate; Level 6: above 60% growth inhibition rate; Level 5: above 50% growth inhibition rate; Level 4: above 30% growth inhibition rate; Level 3: above 20% growth inhibition rate; Level 2: above 10% growth inhibition rate; Level 1: above 1-10% growth inhibition rate; Level 0: no effect
condition-notes: 30 g/ha, 3 weeks after spraying, greenhouse
measure-name: weed control effect, Setaria viridis (level)

>  <compound>
CCc1nn(C)c(OC(=O)c2cn(C)nc2C)c1C(=O)c1ccc(S(C)(=O)=O)c(COCC(F)(F)F)c1Cl [Compound 32]

>  <experimental-system>
Monocotyledonous and dicotyledonous weed

>  <test-result>
10

$$$$
>  <compound>
Cc1nn(C)c(OC(=O)c2cnn(C)c2)c1C(=O)c1ccc(S(C)(=O)=O)c(COCC(F)F)c1Cl [Compound 64]

>  <experimental-system>
Monocotyledonous and dicotyledonous weed

>  <test-result>
10

$$$$
